Test system: HT29 colon
Assay: NCI-60 one-dose screen, 48 h (100 = growth as untreated, 0 = no growth, -100 = all killed)
Conditions: 10 µM
This is part of a sample that, as a whole, favours compounds with a hit. Of some 83,000 tested, about 20% had one in any assay.
Readout: growth (%)
Write down the numeric answer in % and omit the unit.

In the examples that follow, each entry is paired with its recorded growth.
* CC(C(=O)O)(C1CCCCC1)C1(O)CCCCC1 (stereo not drawn) | 101
* CC(=O)OCC(=O)[C@@]1(O)CC[C@H]2[C@@H]3CC[C@@H]4C[C@H](O)CC[C@]4(C)[C@H]3C(=O)C[C@@]21C | 117

Report value only: growth, HT29 colon, "CCOC(=O)/C(C#N)=C/c1cccc(C)c1"
99

* * *

Test system: CCRF-CEM leukemia
Assay: NCI-60 one-dose screen, 48 h (100 = growth as untreated, 0 = no growth, -100 = all killed)
Conditions: 10 µM
This is part of a sample that, as a whole, favours compounds with a hit. Of some 83,000 tested, about 20% had one in any assay.
Readout: growth (%)
Write down the numeric answer in % and omit the unit.

In the examples that follow, each entry is paired with its recorded growth.
* CC(=O)Nc1c(C)cc(C)cc1C | 107
* CCCCCCCCCCCCCC(=O)Oc1ccc[nH]c1=O | 75.5
* Oc1ccccc1-c1nnco1 | 89

Return growth (reported value) for this molecule: "N#Cc1c(N)sc(=S)c2c1CCCC2"
101

Return growth (reported value) for this molecule: "N#C/C(=C\c1cc(O)c(O)c(O)c1)C(N)=O"
74

* * *

Tested on: SK-OV-3 ovarian
Test: NCI-60 one-dose screen, 48 h (100 = growth as untreated, 0 = no growth, -100 = all killed)
Conditions: 10 µM
Compounds without any hit were thinned out: in the full panel of roughly 83,000, 20% have a hit. Calls of active or inactive are those of the source. How the source made its calls: active means growth percent below 10; inactive means the rest.
# growth per entry

In the examples that follow, each entry is paired with its recorded growth.
• CCOC(=O)c1ccc(Nc2sc(C(=O)c3cccc([N+](=O)[O-])c3)c(N)c2C#N)cc1 = 27.6% (inactive)
• CCC/C=C(/C(C)=O)C(=O)OCC = 117% (inactive)
• CCCCC(CC)COC(C)=O (configuration not stated) = 101% (inactive)
• O/N=C/c1ccc(O)cc1O = 103% (inactive)
• O=S(=O)(Cc1ccccc1)c1ccccc1 = 113% (inactive)

Return growth (reported value) for this compound: "CC(=O)Nc1ccc(NC(C)=O)c2c1C(=O)c1ccccc1C2=O"
88.5% (inactive)

Return growth (reported value) for this compound: "CN(C)CCN(C)CC(C)(C)C(=O)/C=C/c1ccc(Cl)cc1"
5.56% (active)

* * *

# growth per entry
Test system: PC-3 prostate
Test: NCI-60 one-dose screen, 48 h (100 = growth as untreated, 0 = no growth, -100 = all killed)
Settings: 10 µM
About 83,000 compounds went through this panel and 20% of them were active in at least one assay; those are over-represented in the sample as a whole.
Write down the numeric answer in % and omit the unit.

In the examples that follow, each entry is paired with its recorded growth.
- C/C(=N\O)C1(O)CCCCC1: 129
- COc1ccc(C2OC(N)=C(O)C2=O)cc1OC (centres undefined): 97.2
- CCOC(=O)C(O)C(O)C(=O)OCC (centres undefined): 98
- O=[N+]([O-])c1ccccc1S(=O)c1ccccc1[N+](=O)[O-]: 81.1
- COS(=O)(=O)c1ccc(Br)cc1: 93.2
- COc1cc(/C=C(\C#N)C(=O)c2ccccc2)ccc1OCc1ccccc1: 95.2
- NC(=O)c1ccc(N=C(N)N=C(N)N)cc1: 93.1
- Cc1cc(N)ccc1-c1ccc(N)cc1C: 73.8

Return growth (reported value) for this compound: CC(=O)OC1CC2C(C)(C)OC3CC(=O)OCC32C2CCC3(C)C(=CCC3c3ccoc3)C12C (centres undefined)
105

Taken from PubChem BioAssay (NCI).
